# Test Target: recombinant human seprase (rhFAP) (Homo sapiens)
# Test Summary: Inhibition of enzymatic activity of recombinant human seprase on Z-Gly-Pro-AMC (fluorescence)
# Assay type: biochemical
# Condition Details: in vitro data against seprase; read-out: FAP (IC50 nM)
Readout Label: IC50 (nM)

Here is how some molecules turned out for IC50.
molecule=N#Cc1ccc(I)cc1C(=O)NCC(=O)N1CCC[C@H]1C#N assay_result=23700
molecule=N#C[C@H]1CCCN1C(=O)CNC(=O)c1cccc(I)c1 assay_result=970
molecule=N#C[C@@H]1CCCN1C(=O)CNC(=O)c1ccc(I)cc1 assay_result=511

a. N#C[C@@H]1CCCN1C(=O)CNC(=O)c1ccc(I)cc1Cl
b. N#Cc1ccc(I)cc1C(=O)NCC(=O)N1CCCC1B(O)O (stereo not drawn)
c. NC(Cc1ccc(I)cc1)C(=O)NCC(=O)N1CCCC1N (stereo not drawn)
I would appreciate it if you could sort these 3 molecules by IC50, starting from the smallest number. Show the ranking through the labels, in the order asked for. b, a, c
(b: 262 nM, a: 692 nM, c: 24500 nM)

###

# Test Target: recombinant human seprase (rhFAP) (Homo sapiens, UniProt Q12884)
# Sequence (Q12884 26-760 limits assumed): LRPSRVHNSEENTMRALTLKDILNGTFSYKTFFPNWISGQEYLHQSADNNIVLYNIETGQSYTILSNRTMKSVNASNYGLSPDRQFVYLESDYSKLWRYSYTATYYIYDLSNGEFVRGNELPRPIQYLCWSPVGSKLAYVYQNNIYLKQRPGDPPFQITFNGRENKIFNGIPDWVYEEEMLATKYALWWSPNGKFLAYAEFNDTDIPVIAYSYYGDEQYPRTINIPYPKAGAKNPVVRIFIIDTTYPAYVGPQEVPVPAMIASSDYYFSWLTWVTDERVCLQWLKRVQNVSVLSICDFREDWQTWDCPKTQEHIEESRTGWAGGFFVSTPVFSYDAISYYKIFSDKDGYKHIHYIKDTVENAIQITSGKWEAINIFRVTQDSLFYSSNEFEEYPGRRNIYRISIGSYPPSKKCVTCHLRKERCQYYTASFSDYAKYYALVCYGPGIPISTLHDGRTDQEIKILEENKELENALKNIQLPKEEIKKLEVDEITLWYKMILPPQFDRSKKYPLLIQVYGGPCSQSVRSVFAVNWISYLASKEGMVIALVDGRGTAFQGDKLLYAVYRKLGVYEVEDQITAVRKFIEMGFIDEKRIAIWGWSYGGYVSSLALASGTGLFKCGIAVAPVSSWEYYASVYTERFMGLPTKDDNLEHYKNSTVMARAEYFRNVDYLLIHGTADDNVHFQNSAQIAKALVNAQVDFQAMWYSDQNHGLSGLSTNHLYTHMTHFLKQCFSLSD
# Test Summary: Inhibition of enzymatic activity of recombinant human seprase on Z-Gly-Pro-AMC (fluorescence)
# Format: biochemical
# Condition Details: in vitro data against seprase; read-out: FAP (IC50 nM)
Readout Label: IC50 (nM)

1. O=C(NCC(=O)N1CCCC1B(O)O)Nc1ccc(I)cc1 (stereo not drawn)
2. N#C[C@@H]1CCCN1C(=O)CN1CCN(Cc2cccc(I)c2)CC1
Task for the reader: decide whether 1 or 2 has the larger IC50. State your choice using its label. 2
(2: 1150 nM, 1: 11 nM)

I. O=C(NCC(=O)N1CCCC1B(O)O)c1cc(I)ccc1F (stereo not drawn)
II. N#C[C@@H]1CCCN1C(=O)CNC(=O)c1cccc(I)c1
III. O=C(NCC(=O)N1CCCC1B(O)O)c1ccc(I)cc1 (stereo not drawn)
IV. O=C(NCC(=O)N1CCCC1B(O)O)c1ccc2cc(I)ccc2c1 (stereo not drawn)
V. O=C(NCC(=O)N1CCCC1B(O)O)c1cc(I)ccc1Br (stereo not drawn)
Put the entries in order of IC50, starting with the largest number. In plain terms: list the labels in the order you were asked to. II, I, V, III, IV
(II: 35 nM, I: 8 nM, V: 5 nM, III: 3 nM, IV: 2 nM)

1. O=C(NCC(=O)N1CCCC1B(O)O)c1ccccc1I (stereo not drawn)
2. NC(Cc1ccc(I)cc1)C(=O)NCC(=O)N1CCCC1B(O)O (stereo not drawn)
Please choose the item with the lower IC50 value from this pair: 1 and 2 Please identify the chosen entry by its label. 1
(1: 7 nM, 2: 340 nM)

###

# Test Target: recombinant human seprase (rhFAP) (Homo sapiens, UniProt Q12884)
# Test Summary: Inhibition of enzymatic activity of recombinant human seprase on Z-Gly-Pro-AMC (fluorescence)
# Type: biochemical
# Condition Details: in vitro data against seprase; read-out: FAP (IC50 nM)
Readout Label: IC50 (nM)

Completed entries (count: 2):
molecule="O=C(NCC(=O)N1CCCC1B(O)O)c1cc(I)ccc1Cl (stereo not shown) [Compound 1027]" readout_label=IC50 assay_result=5
molecule="O=C(NCC(=O)N1CCCC1B(O)O)OCc1ccccc1 (stereo not drawn) [Compound 1051, Cbz-Gly-boroproline, reference compound]" readout_label=IC50 assay_result=67

P. O=C(CN1CCN(Cc2cccc(I)c2)CC1)N1CCCC1B(O)O (stereo not shown) [Compound 1036]
Q. O=C(NCC(=O)N1CCCC1B(O)O)c1cccc(I)c1 (stereo not shown) [Compound 1025]
Which has the higher IC50, P or Q ? Let me know the label of the one you choose. P

###

# Test Target: recombinant human seprase (rhFAP) (Homo sapiens)
# Test Summary: Inhibition of enzymatic activity of recombinant human seprase on Z-Gly-Pro-AMC (fluorescence)
# Assay type: biochemical
# Condition Details: inhibitor 0.005 μM; initial velocity normalized to control without test compound; 50 μM Z-Gly-Pro-AMC; read-out: Percent of Control
Readout Label: remaining activity at 0.005 µM (%)

A. O=C(NCC(=O)N1CCCC1B(O)O)c1ccccc1I (stereo not shown) [Compound 1023]
B. O=C(NCC(=O)N1CCCC1B(O)O)c1cccc(I)c1 (stereo not shown) [Compound 1025]
C. O=C(NCC(=O)N1CCCC1B(O)O)c1ccc(I)cc1 (stereo not shown) [Compound 1024]
D. O=C(NCC(=O)N1CCCC1B(O)O)OCc1ccccc1 (stereo not drawn) [Compound 1051, Cbz-Gly-boroproline, reference compound]
Could you arrange the 4 compounds above by remaining activity at 0.005 µM, starting with the largest number? List the labels in the requested order. D, A, C, B
(D: 81%, A: 42%, C: 22%, B: 0%)

###

# Test Target: recombinant human seprase (rhFAP) (Homo sapiens)
# Test Summary: Inhibition of enzymatic activity of recombinant human seprase on Z-Gly-Pro-AMC (fluorescence)
# Format: biochemical
# Condition Details: inhibitor 0.5 μM; initial velocity normalized to control without test compound; 50 μM Z-Gly-Pro-AMC; read-out: Percent of Control
Readout Label: remaining activity at 0.5 µM (%)

P. O=C(NCC(=O)N1CCCC1B(O)O)c1ccccc1I (stereo not shown)
Q. O=C(NCC(=O)N1CCCC1B(O)O)OCc1ccccc1 (stereo not drawn) [Compound 1051, Cbz-Gly-boroproline, reference compound]
Which value of remaining activity at 0.5 µM is greater, the one for P or the one for Q ? Lab log: write the label of the selected item as the result. Q
(Q: 1%, P: 0%)

###

# Test Target: recombinant human seprase (rhFAP) (Homo sapiens, UniProt Q12884)
# Test Summary: Inhibition of enzymatic activity of recombinant human seprase on Z-Gly-Pro-AMC (fluorescence)
# Type: biochemical
# Condition Details: in vitro data against seprase; read-out: FAP (IC50 nM)
Readout Label: IC50 (nM)

compound=N#C[C@@H]1CCCN1C(=O)CNCc1cccc(I)c1 assay_result=953

I. N#C[C@@H]1CCCN1C(=O)CNC(=O)c1cc(I)ccc1Cl
II. O=C(NCC(=O)N1CCCC1B(O)O)c1cc(I)ccn1 (stereo not drawn)
Two entries are listed, I and II . Which one carries the higher IC50? Output the label that corresponds to your choice. I
